# STUDY_SYSTEM: 0N4R Tau fibrils (Homo sapiens, UniProt P10636)
# Construct: made in house
# Sequence (P10636 1-383 isoform P10636-6): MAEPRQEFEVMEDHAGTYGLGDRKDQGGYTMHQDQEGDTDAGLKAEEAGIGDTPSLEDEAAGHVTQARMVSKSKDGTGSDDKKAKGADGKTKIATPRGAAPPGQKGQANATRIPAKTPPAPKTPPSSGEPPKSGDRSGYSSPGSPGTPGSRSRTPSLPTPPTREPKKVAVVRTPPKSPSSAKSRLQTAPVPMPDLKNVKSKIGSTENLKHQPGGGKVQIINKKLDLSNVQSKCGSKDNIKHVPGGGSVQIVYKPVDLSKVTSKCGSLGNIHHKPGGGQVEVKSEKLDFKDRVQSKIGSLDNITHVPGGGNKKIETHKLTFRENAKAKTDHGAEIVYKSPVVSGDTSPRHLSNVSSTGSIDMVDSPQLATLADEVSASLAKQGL
# TEST_DESCRIPTION: ^3H-THK5117 competition binding to tau fibrils in vitro
# EXPERIMENTAL_CONDITIONS: calculated from [^3H]-THK5117 tau and [^3H]-AZD2184 Aβ assays
# Procedure: Preparation of recombinant 0N4R Tau fibrils was performed as previously described in Morozova, O. A., Biochemistry (2013), Vol., 52(40), pages 6960-6967. […] The filter was then washed rapidly four times with 3 mL of ice-cold wash buffer (5 mM Tris-HCl, 0.25 mM NaCl, 5% EtOH), and equilibrated for 1 h in scintillation vials containing 5 mL of Ultima Gold scintillation fluid before being analysed using a Liquid Scintillation Analyzer. […]
RESULT_TYPE: Selectivity for tau relative to Aβ

Oc1ccc2[nH]c(-c3cnc(N4CCC(CF)CC4)nc3)cc2c1 = 17
NC(=O)C1CCN(c2ccc(-c3cc4cc(O)ccc4[nH]3)c(F)n2)CC1 = 13
FCCOCCOCCOC1CCN(c2ccc(-c3nc4ccccc4s3)cn2)CC1 = 0.2

[P] OCC1CCN(c2ncc(-c3nc4ccc(O)cc4s3)cn2)CC1
[Q] COc1ccc2[nH]c(-c3ccc(N4CCC(C(N)=O)CC4)nc3)cc2c1
Prompt line: Which record shows the lower Selectivity for tau relative to Aβ: the first, P , or the second, Q ? The response must carry the label of the picked entry.
Response line: Q

Data provenance: patent US12636385B2
